// reported pIC50 per item
measuredOn: PARP7 (Homo sapiens (Human), UniProt Q7Z3E1)
Sequence (Q7Z3E1 whole entry): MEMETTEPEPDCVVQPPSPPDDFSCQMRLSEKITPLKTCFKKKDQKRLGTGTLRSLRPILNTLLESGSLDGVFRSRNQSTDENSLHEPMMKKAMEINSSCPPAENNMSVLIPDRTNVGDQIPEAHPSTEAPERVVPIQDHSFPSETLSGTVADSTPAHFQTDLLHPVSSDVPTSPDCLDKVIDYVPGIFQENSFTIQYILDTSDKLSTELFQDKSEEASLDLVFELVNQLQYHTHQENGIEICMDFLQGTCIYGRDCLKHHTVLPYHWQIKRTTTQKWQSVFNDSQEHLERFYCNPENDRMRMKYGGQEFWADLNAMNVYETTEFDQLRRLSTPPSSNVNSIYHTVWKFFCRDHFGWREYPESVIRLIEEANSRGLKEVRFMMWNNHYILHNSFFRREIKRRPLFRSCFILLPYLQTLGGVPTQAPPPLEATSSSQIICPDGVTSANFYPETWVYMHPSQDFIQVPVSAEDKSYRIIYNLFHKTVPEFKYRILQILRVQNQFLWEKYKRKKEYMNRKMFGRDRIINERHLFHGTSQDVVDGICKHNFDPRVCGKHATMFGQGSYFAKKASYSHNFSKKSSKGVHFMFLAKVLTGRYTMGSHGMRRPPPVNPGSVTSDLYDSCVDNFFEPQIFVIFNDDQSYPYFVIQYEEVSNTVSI
methodNotes: TR-FRET assay: displacement of biotinylated Probe A from the TIPARP active site (Enzymatic Assay for Inhibition of PARP7)
studyConditions: TIPARP 6 nM, Probe A 2 nM, 25° C.
pIC50: −log10 of the molar value.

Reference set (3 entries):
                                   compound  result
0  C[C@@H](CO[C@@H]1CCN(C2CCN(c3ncc(Cl)cn3)CC2)C1=O)Nc1cn[nH]c(=O)c1C(F)(F)F  > 7.00
1  C[C@@H](CO[C@H]1CCCN(C2CCN(c3ncc(C(F)(F)F)cn3)CC2)C1=O)Nc1cn[nH]c(=O)c1C(F)(F)F [Example 34A]  > 7.00
2  C[C@@H](CO[C@@H]1CCN(C2CCN(c3cnc(C(F)(F)F)cn3)CC2)C1=O)Oc1cn[nH]c(=O)c1Br [Example 46B]  > 7.00

Consider now this further compound.
# pIC50 lookup, item COC[C@@H](CO[C@@H]1CCN(C2CCN(c3ncc(C(F)(F)F)cn3)CC2)C1=O)Nc1cn[nH]c(=O)c1C(F)(F)F [Example 19B]
> 7.00

* * *

measuredOn: PARP7 (Homo sapiens (Human), UniProt Q7Z3E1)
methodNotes: TR-FRET assay: displacement of biotinylated Probe A from the TIPARP active site (Enzymatic Assay for Inhibition of PARP7)
Format: binding
studyConditions: TIPARP 6 nM, Probe A 2 nM, 25° C.
readoutKind: IC50

                                   molecule                                measuredon  readoutkind          result
0  COC[C@@H](COCC(=O)N(C)C1CCN(c2ncc(C(F)(F)F)cn2)CC1)Nc1cn[nH]c(=O)c1C(F)(F)F  PARP7 (Homo sapiens (Human), UniProt Q7Z3E1)         IC50        < 100 nM
1  C[C@@H](CO[C@H]1CCN(C2CCN(c3ncc(C(F)(F)F)cn3)CC2)C1=O)Oc1cn[nH]c(=O)c1Cl [Example 47A]  PARP7 (Homo sapiens (Human), UniProt Q7Z3E1)         IC50  100 to 1000 nM
2  C[C@H](CN[C@@H]1CCN(C2CCN(c3ncc(C(F)(F)F)cn3)CC2)C1=O)Nc1cn[nH]c(=O)c1C(F)(F)F (single isomer, unassigned) [Example 26D]  PARP7 (Homo sapiens (Human), UniProt Q7Z3E1)         IC50  100 to 1000 nM
3  COC[C@@H](CO[C@@H]1CCN(C2CCN(c3ncc(C#N)s3)CC2)C1=O)Nc1cn[nH]c(=O)c1C(F)(F)F  PARP7 (Homo sapiens (Human), UniProt Q7Z3E1)         IC50        < 100 nM

# IC50 lookup, item C[C@@H](COC1CCN(C2CCN(c3ncc(C(F)F)cn3)CC2)C1=O)Oc1cn[nH]c(=O)c1C(F)(F)F (stereo partly shown)
< 100 nM

One more molecule: C[C@@H](CO[C@@H]1CCN(C2CCN(c3ncc(C(F)F)cn3)CC2)C1=O)Nc1cn[nH]c(=O)c1C(F)(F)F [Example 15B]
< 100 nM

One more molecule: C[C@@H](CO[C@@H]1CCN(C2CCN(c3ccc(C#N)cn3)CC2)C1=O)Oc1cn[nH]c(=O)c1Br [Example 48A]
< 100 nM

One more molecule: `C[C@@H](COCC(=O)N(C)C1CN(c2ncc(C(F)(F)F)cn2)C1)Nc1cn[nH]c(=O)c1C(F)(F)F`
< 100 nM

One more molecule: C[C@@H](CO[C@@H]1CCN(C2CCN(c3cnc(C(F)F)cn3)CC2)C1=O)Nc1cn[nH]c(=O)c1C(F)(F)F [Example 22B]
< 100 nM

One more molecule: `C[C@@H](COCC(=O)NC1CCN(c2ncc(C(F)(F)F)cn2)CC1)Nc1cn[nH]c(=O)c1C(F)(F)F`
< 100 nM

One more molecule: `COC[C@@H](CO[C@@H]1CCN(C2CCN(c3ncc(C)cn3)CC2)C1=O)Nc1cn[nH]c(=O)c1C(F)(F)F`
< 100 nM

One more molecule: `C[C@@H](CO[C@@H]1CCN([C@H]2CCN(c3ncc(C(F)(F)F)cn3)C[C@@H]2O)C1=O)Nc1cn[nH]c(=O)c1C(F)(F)F`
< 100 nM

One more molecule: C[C@@H](CO[C@H]1CCN(C2CCN(c3cnc(C(F)(F)F)cn3)CC2)C1=O)Nc1cn[nH]c(=O)c1C(F)(F)F [Example 13A]
100 to 1000 nM

* * *

measuredOn: PARP7 (Homo sapiens (Human))
methodNotes: TR-FRET assay: displacement of biotinylated Probe A from the TIPARP active site (Enzymatic Assay for Inhibition of PARP7)
Type: binding
studyConditions: TIPARP 6 nM, Probe A 2 nM, 25° C.
pIC50: −log10 of the molar value.
// reported pIC50 per item

compound	pIC50
C[C@@H](CO[C@@H]1CCN([C@H]2CCN(c3ncc(C(F)(F)F)cn3)C[C@@H]2F)C1=O)Nc1cn[nH]c(=O)c1C(F)(F)F (single isomer, unassigned) [Example 38B]	> 7.00
COC[C@@H](CO[C@H]1CCN(C2CCN(c3ccc(C#N)cn3)CC2)C1=O)Oc1cn[nH]c(=O)c1Br [Example 55A]	≤ 6.00
C[C@@H](COCC(=O)N(C)C1CCN(c2ccc(C#N)cn2)CC1)Nc1cn[nH]c(=O)c1C(F)(F)F	> 7.00
C[C@@H](CO[C@@H]1CCN(C2CCN(c3cnc(C(F)(F)F)cn3)CC2)C1=O)Oc1cn[nH]c(=O)c1C(F)(F)F [Example 31B]	6.00 to 7.00
C[C@@H](CO[C@H]1C(=O)N(C2CCN(c3ncc(C(F)(F)F)cn3)CC2)CC1(C)C)Nc1cn[nH]c(=O)c1C(F)(F)F [Example 35B]	> 7.00
Cc1cnc(N2CCC(N3CC[C@@H](OC[C@H](C)Nc4cn[nH]c(=O)c4C(F)(F)F)C3=O)CC2)nc1	> 7.00

# pIC50 lookup, item `C[C@@H](CO[C@@H]1CCN(C2CCN(c3ncc(C(F)(F)F)cn3)CC2)C1=O)Nc1cn[nH]c(=O)c1Br`
> 7.00

One more compound: C[C@@H](COC1CCN(C2CCN(c3ncc(C(F)(F)F)cn3)CC2)C1=O)Nc1cn[nH]c(=O)c1Cl (some centres unmarked)
> 7.00
